All values here come from the RNAGym collection of RNA variant scans (doi:10.7554/elife.80360).

B1: HDV Ribozyme (parent)
chain: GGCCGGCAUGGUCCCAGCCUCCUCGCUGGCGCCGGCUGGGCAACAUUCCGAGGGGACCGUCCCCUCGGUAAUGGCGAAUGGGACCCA

- Variants of: B1
- EXPERIMENT_NOTES: self-cleavage, relative activity (ratio to wild type); higher = more cleavage; co-transcriptional
A collection of variants and their measured self-cleavage

VARIANT_NAME: G11A C85A
self-cleavage: 0.735
--
VARIANT_NAME: C64A C84A
self-cleavage: 1.15
--
VARIANT_NAME: G28U C86G
self-cleavage: 0.217
--
VARIANT_NAME: A43C U46G
self-cleavage: 0.415
--
VARIANT_NAME: C21U A71C
self-cleavage: 0.293
--
VARIANT_NAME: C24U C66G
self-cleavage: 0.796
--
VARIANT_NAME: C4U A70U
self-cleavage: 0.554
--
VARIANT_NAME: G53C A70G
self-cleavage: 0.962
--
VARIANT_NAME: A70U C85G
self-cleavage: 0.724
--
VARIANT_NAME: C26U G76U
self-cleavage: 0.963
--
VARIANT_NAME: C49U G59A
self-cleavage: 0.935
--
VARIANT_NAME: A77C U79C
self-cleavage: 0.138
--
VARIANT_NAME: C26G G40A
self-cleavage: 0.912
--
VARIANT_NAME: G52C C66U
self-cleavage: 0.965
--
VARIANT_NAME: C24A C36A
self-cleavage: 0.175
--
VARIANT_NAME: U9C C61A
self-cleavage: 1.03
--
VARIANT_NAME: C3U U12A
self-cleavage: 0.0817
--
VARIANT_NAME: C4G G25C
self-cleavage: 0
--
VARIANT_NAME: C13U G53U
self-cleavage: 0.671
--
VARIANT_NAME: G29U C36U
self-cleavage: 0.187
--
VARIANT_NAME: G31U C49A
self-cleavage: 0.451
--
VARIANT_NAME: U23C U65C
self-cleavage: 1.02
